Every entry's value here was drawn from patent EP0326331B1.

Test system: southern armyworm (Spodopetra eridania Cramer)
assay_details: Mite/insect screen, SAW
Type: in vivo
condition_summary: Spodoptera eridania, percent mortality; SAW, SM & MA RATE 400 PPM; read-out: SAW RESULTS %
mortality at 400 ppm overview
Response body: numeric value in %, unit text excluded.

{"columns": ["compound", "display_unit", "mortality at 400 ppm"],
 "data": [
  ["CC(=O)N(CCc1ccc(Cl)cc1)c1ccnc2c(F)cccc12 [Example 10]", "%", 0],
  ["CC(=O)N(CCc1ccc(Cl)cc1)c1ccnc2cc(Cl)ccc12 [Example 124]", "%", 0],
  ["CC(=O)N(CCc1ccc(C(C)C)cc1)c1ccnc2c(F)cccc12 [Example 129]", "%", 0],
  ["FC(F)(F)c1ccc2c(NCCc3ccc(Cl)cc3Cl)ccnc2c1 [Example 104]", "%", 60],
  ["FC(F)(F)c1cccc(CCNc2ccnc3cc(Cl)ccc23)c1 [Example 107]", "%", 0],
  ["CC(=O)N(CCc1ccccc1Cl)c1ccnc2c(Cl)cccc12 [Example 132]", "%", 0],
  ["Fc1cccc2c(NCCc3ccc(-c4ccccc4)cc3)ccnc12 [Example 113]", "%", 70],
  ["COc1ccc2nccc(NCCc3ccc(Cl)cc3)c2c1 [Example 16]", "%", 0]
]}

// query mortality at 400 ppm value for entry Clc1ccc2c(NCCc3ccc(Cl)c(Cl)c3)ccnc2c1 [Example 101]
0

I am curious: what mortality at 400 ppm value has been reported for CCc1ccc2nccc(NCCC3=CCCCC3)c2c1 [Example 145] ?
0

So what's the measured mortality at 400 ppm for this one? Fc1cccc2c(NCC(c3ccccc3)C3CCCCC3)ccnc12 (stereo not drawn) [Example 62]
0
